target: Human recombinant MMP-2 (Homo sapiens); construct: made in house; host or cells: MMP-2-transfected p2AHT2 cells; experiment: In vitro MMP inhibition, IC50 determination (fluorogenic substrate I); format: biochemical; conditions: value outside parentheses
pIC50: −log10 of the molar value.
measuredProperty: pIC50

compound	experimentalResult
COc1ccc(C(=N)NCCCOc2ccc(S(=O)(=O)C3(C(=O)NO)CCOCC3)cc2)cc1	7.02
N#Cc1ccc(-c2cccc(CCCOc3ccc(S(=O)(=O)C4(C(=O)NO)CCOCC4)cc3)c2)cc1	6.67

(I) O=C(NO)C1(S(=O)(=O)c2ccc(OCCOCc3ccncc3)cc2)CCOCC1
(II) O=C(NO)C1(S(=O)(=O)c2ccc(OCCCc3cccc(-c4coc5ccccc45)c3)cc2)CCOCC1
(III) O=C(NO)C1(S(=O)(=O)c2ccc(OCCCc3cccc(N4CCNCC4)c3)cc2)CCN(C2CC2)CC1
-- ask Parameters: sort_field (pIC50), sort_dir (desc). Answer format: the labels, in the requested order.
-- reply I, III, II

(1) O=C(NCCOc1ccc(S(=O)(=O)C2(C(=O)NO)CCOCC2)cc1)c1ccc(-c2ccccc2)cc1
(2) O=C(NO)C1(S(=O)(=O)c2ccc(OCCCc3cccc(-c4ccoc4)c3)cc2)CCOCC1
-- ask Compare 1 and 2 and name the one whose reported pIC50 is smaller. Select an item and report its label.
-- reply 2

(1) O=C(COc1ccc(S(=O)(=O)C2(C(=O)NO)CCOCC2)cc1)c1cccc(-c2ccccc2)c1
(2) O=C(NO)C1(S(=O)(=O)c2ccc(OCC3Cc4cc(Oc5ccccc5)ccc4O3)cc2)CCOCC1 (centres unmarked)
-- ask Recorded pIC50 values differ for 1 and 2 ; which one is higher? # answer = label of selected item
-- reply 2
(2: 7.70, 1: 7.13)

* * *

Molecular target: Human recombinant MMP-13 (Homo sapiens, UniProt P45452)
Construct: made in house; host or cells: baculovirus / insect cells
Assay: In vitro MMP inhibition, IC50 determination (fluorogenic substrate I)
Type: biochemical
Settings: substrate (I) 4 μM, room temperature; values not in parenthesis
Method: Several hydroxamates and salts thereof were analyzed in in vitro assays to determine their ability to inhibit the MMP cleavage of peptide substrates. Inhibition (Ki) and IC50 constants were calculated from the assayed hydroxamate-MMP interactions. […] The assays from which the IC50 determinations were made were performed as follows. […] The assayed hydroxamate samples were, incubated in Microfluorrm White Plates (Dynatech, Chantilly, VA) and analyzed on a Perkin Elmer L550 plate reader (Norwalk, Conn.). […]
pIC50: −log10 of the molar value. Where a name gives a salt, the structure may show the parent alone.
measuredProperty: pIC50

compound	experimentalResult
CN(C)c1ccc(NC(=O)CCCCOc2ccc(S(=O)(=O)C3(C(=O)NO)CCOCC3)cc2)cc1 [Example 20, Monohydrochloride]	8.74
O=C(NO)C1(S(=O)(=O)c2ccc(OCCc3cccc(-c4ccccn4)c3)cc2)CCOCC1	9.30
CN(CCCOc1ccc(S(=O)(=O)C2(C(=O)NO)CCOCC2)cc1)C(=O)c1ccc(N(C)C)cc1	7.82
COc1ccc(C(=O)NCCCOc2ccc(S(=O)(=O)C3(C(=O)NO)CCOCC3)cc2)cc1	8.80
COc1ccc(/C(C)=C/CCCOc2ccc(S(=O)(=O)C3(C(=O)NO)CCOCC3)cc2)cc1	8.15
O=C(NO)C1(S(=O)(=O)c2ccc(OCCCSc3nc4ccccc4o3)cc2)CCOCC1	9.00
O=C1c2ccccc2CN1CCCOc1ccc(S(=O)(=O)C2(C(=O)NO)CCOCC2)cc1	8.31
COc1ccc(C(=O)NCCCOc2ccc(S(=O)(=O)C3(C(=O)NO)CCN(C4CC4)CC3)cc2)cc1 [Example 18, Monohydrochloride]	8.74

(a) O=C(NO)C1(S(=O)(=O)c2ccc(OCCCc3ccc4ccccc4c3)cc2)CCOCC1
(b) O=C(NO)C1(S(=O)(=O)c2ccc(OCCCn3nnc(-c4ccc(OC(F)(F)F)cc4)n3)cc2)CCN(CC2CC2)CC1
-- ask Compare pIC50: is it lower for a or for b ? Output the label that corresponds to your choice.
-- reply a
(a: 8.62, b: 9.00)

(P) COc1ccc(/C(CCCCOc2ccc(S(=O)(=O)C3(C(=O)NO)CCOCC3)cc2)=N/O)c(OC)c1
(Q) COc1ccc(C(=O)C(C)CCCOc2ccc(S(=O)(=O)C3(C(=O)NO)CCOCC3)cc2)cc1 (stereo not drawn)
(R) O=C(NO)C1(S(=O)(=O)c2ccc(OCCCc3nc(-c4ccc(OC(F)(F)F)cc4)no3)cc2)CCN(C2CC2)CC1 [Example 51, Hydrochloride]
-- ask Rank order required: pIC50, descending. Please list each label once, in the requested order.
-- reply R, P, Q

* * *

Target: Human recombinant MMP-2 (Homo sapiens, UniProt P08253)
Construct: made in house; host or cells: MMP-2-transfected p2AHT2 cells
Sequence (P08253 110-660): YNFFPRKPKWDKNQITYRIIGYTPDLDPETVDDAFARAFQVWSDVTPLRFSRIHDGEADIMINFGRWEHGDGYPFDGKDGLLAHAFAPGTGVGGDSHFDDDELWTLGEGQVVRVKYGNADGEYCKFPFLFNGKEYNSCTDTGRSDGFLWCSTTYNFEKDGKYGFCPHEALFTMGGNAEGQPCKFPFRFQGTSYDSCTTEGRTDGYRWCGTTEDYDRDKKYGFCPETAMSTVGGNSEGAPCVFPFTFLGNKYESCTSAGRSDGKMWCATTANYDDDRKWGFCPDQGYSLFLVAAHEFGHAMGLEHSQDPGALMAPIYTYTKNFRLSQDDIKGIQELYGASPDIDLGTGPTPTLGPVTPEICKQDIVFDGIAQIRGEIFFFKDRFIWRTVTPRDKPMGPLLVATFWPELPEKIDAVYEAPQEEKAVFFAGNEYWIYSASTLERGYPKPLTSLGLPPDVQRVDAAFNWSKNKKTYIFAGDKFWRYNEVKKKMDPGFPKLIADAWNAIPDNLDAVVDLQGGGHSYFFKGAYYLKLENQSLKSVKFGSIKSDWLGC
Test: In vitro MMP inhibition, IC50 determination (fluorogenic substrate I)
Type: biochemical
Conditions: value outside parentheses (Ki in parenthesis)
Experimental: Several hydroxamates and salts thereof were analyzed in in vitro assays to determine their ability to inhibit the MMP cleavage of peptide substrates. Inhibition (Ki) and IC50 constants were calculated from the assayed hydroxamate-MMP interactions. […] The assays from which the IC50 determinations were made were performed as follows. […] The assayed hydroxamate samples were, incubated in Microfluorrm White Plates (Dynatech, Chantilly, VA) and analyzed on a Perkin Elmer L550 plate reader (Norwalk, Conn.). […]
pIC50: −log10 of the molar value.
measuredProperty: pIC50

Please review the following examples before continuing.
compound	systemUnderTest	pIC50
O=C(NO)C1(S(=O)(=O)c2ccc(OC3CCOCC3)cc2)CCOCC1	Human recombinant MMP-2 (Homo sapiens, UniProt P08253)	7.74
COc1ccccc1C(=O)NCCCOc1ccc(S(=O)(=O)C2(C(=O)NO)CCOCC2)cc1	Human recombinant MMP-2 (Homo sapiens, UniProt P08253)	6.37

(P) O=C(NCCCOc1ccc(S(=O)(=O)C2(C(=O)NO)CCOCC2)cc1)C1CCCCC1
(Q) CC1CCCCC1COc1ccc(S(=O)(=O)C2(C(=O)NO)CCOCC2)cc1 (centres unmarked)
-- ask // max by pIC50 over [ P , Q ] Field: selected label. Fill in the label of the entry you choose.
-- reply Q
(Q: 8.82, P: 6.19)

(I) O=C(NO)C1(S(=O)(=O)c2ccc(OCCCCO)cc2)CCOCC1
(II) O=C(NO)C1(S(=O)(=O)c2ccc(OCCSc3nc4ccccc4o3)cc2)CCOCC1
-- ask Please state the entry with greater pIC50 among I and II . Selection: enter the item's label.
-- reply I
(I: 8.33, II: 7.92)

* * *

Biological target: Human recombinant MMP-14 (Homo sapiens, UniProt P50281)
Construct: The catalytic domain enzyme was expressed in E. coli inclusion bodies, solubilized in urea; made in house
Test: In vitro MMP inhibition, IC50 determination (fluorogenic substrate I)
Format: biochemical
Conditions: value outside parentheses (Ki in parenthesis)
Description: Several hydroxamates and salts thereof were analyzed in in vitro assays to determine their ability to inhibit the MMP cleavage of peptide substrates. Inhibition (Ki) and IC50 constants were calculated from the assayed hydroxamate-MMP interactions. […] The assays from which the IC50 determinations were made were performed as follows. […] The assayed hydroxamate samples were, incubated in Microfluorrm White Plates (Dynatech, Chantilly, VA) and analyzed on a Perkin Elmer L550 plate reader (Norwalk, Conn.). […]
pIC50: −log10 of the molar value.
measuredProperty: pIC50

molecule	measuredProperty	experimentalResult
COc1ccc(OCCCOc2ccc(S(=O)(=O)C3(C(=O)NO)CCN(C4CC4)CC3)cc2)cc1 [Example 442]	pIC50	6.00

Value of pIC50 reported for the molecule C[C@@H]1[C@H](c2ccccc2)OC(=O)N1CCCOc1ccc(S(=O)(=O)C2(C(=O)NO)CCOCC2)cc1 [Example 308] is < 5.00

pIC50 reported for this molecule O=C(NCCCOc1ccc(S(=O)(=O)C2(C(=O)NO)CCOCC2)cc1)c1cc2ccccc2cc1O [Example 376] : < 5.00

* * *

target: Human recombinant MMP-13 (Homo sapiens); construct: made in house; host or cells: baculovirus / insect cells; assay: In vitro MMP inhibition, IC50 determination (fluorogenic substrate I); assay type: biochemical; conditions: value outside parentheses (Ki in parenthesis)
pIC50: −log10 of the molar value.
measuredProperty: pIC50

The cases that follow already have their pIC50 on record.
molecule	experimentalResult
CC(C)(COc1ccc(S(=O)(=O)C2(C(=O)NO)CCOCC2)cc1)CSc1ccccc1	7.05
O=C(NO)C1(S(=O)(=O)c2ccc(OCCSc3nc4c(Cl)cc(Cl)cc4o3)cc2)CCOCC1	9.00
CCOc1ccc(-c2nnc(CCCOc3ccc(S(=O)(=O)C4(C(=O)NO)CCOCC4)cc3)o2)cc1OCC	8.00
O=C(NO)C1(S(=O)(=O)c2ccc(OCCCS(=O)(=O)C3CCCCC3)cc2)CCOCC1	8.59
O=C(NO)C1(S(=O)(=O)c2ccc(OCCCCN3CCCc4ccccc43)cc2)CCOCC1	8.10

(a) O=C(NCCCOc1ccc(S(=O)(=O)C2(C(=O)NO)CCOCC2)cc1)c1cnc(Cl)c(Cl)c1
(b) Cc1ccc(C(=O)NCCCOc2ccc(S(=O)(=O)C3(C(=O)NO)CCOCC3)cc2)c(C)c1
(c) COc1cccc(SCC(C)(C)COc2ccc(S(=O)(=O)C3(C(=O)NO)CCOCC3)cc2)c1
(d) Cc1cc(C(=O)CCCCOc2ccc(S(=O)(=O)C3(C(=O)NO)CCOCC3)cc2)ccc1OC(C)C
(e) O=C(NCCCOc1ccc(S(=O)(=O)C2(C(=O)NO)CCOCC2)cc1)c1cccnc1
-- ask Reorder: pIC50, max to min. Please list each label once, in the requested order.
-- reply a, d, e, b, c

(1) O=C(NO)C1(S(=O)(=O)c2ccc(OC3CCOCC3)cc2)CCOCC1
(2) COc1ccc(C(=O)[C@H](O)CCOc2ccc(S(=O)(=O)C3(C(=O)NO)CCOCC3)cc2)cc1
-- ask Exercise: compare 1 and 2 ; which one has the greater pIC50? Give the chosen item's label as your response.
-- reply 1

(1) COc1ccc2c(c1)CCCN2CCCCCOc1ccc(S(=O)(=O)C2(C(=O)NO)CCOCC2)cc1
(2) COc1ccc(SC[C@H](C)COc2ccc(S(=O)(=O)C3(C(=O)NO)CCOCC3)cc2)cc1
-- ask Endpoint returns the identifier whose pIC50 is numerically larger, either 1 or 2 . Refer to your chosen item by its label in the answer.
-- reply 2
